Molecular target: T1, human LIGHT (TNFSF14), full length, membrane-bound (214E allele) (human, UniProt O43557 1-240)
T1 construct: also called membrane LIGHT; human membrane LIGHT
T1 sequence (O43557 whole entry K214E): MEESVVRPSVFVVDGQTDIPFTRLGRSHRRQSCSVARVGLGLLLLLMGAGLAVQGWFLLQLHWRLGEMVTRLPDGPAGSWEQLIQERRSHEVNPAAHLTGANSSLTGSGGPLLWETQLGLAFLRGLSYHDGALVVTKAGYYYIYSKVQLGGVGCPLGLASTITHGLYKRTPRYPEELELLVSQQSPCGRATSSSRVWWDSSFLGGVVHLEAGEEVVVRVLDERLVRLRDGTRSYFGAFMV
Experiment: DcR3-His (1 nM) competition, EL4-LIGHT, flow cytometry; 3.7 nM
Experimental: EL4-LIGHT cells (0.25×10⁶) were preincubated with anti-membrane LIGHT mAbs (0-300 nM) for 15 min at 4° C. followed by incubation with DcR3-His tagged (1 nM, Creative BioMart; ref: TNFRSF6B-552H, lot: 962512) for 30 min at 4° C. […] Specific mean fluorescence intensity (MFI) obtained from the binding of DcR3-His to LIGHT on EL4 cells were used to determine the levels of competition binding. […]
reported property: DcR3-His binding, % of irrelevant mAb (%)
Output spec: scalar in %, unitless text.

So what's the measured DcR3-His binding, % of irrelevant mAb for this one? 2E08 (antibody, human IgG4, V domains shown, chimeric human IgG4 (S-to-P, L-to-E at 248), human CL; also called Parental 2E08) VH: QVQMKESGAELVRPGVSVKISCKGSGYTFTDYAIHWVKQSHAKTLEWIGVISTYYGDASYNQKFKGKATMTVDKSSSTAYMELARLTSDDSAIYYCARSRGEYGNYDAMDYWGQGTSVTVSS VL: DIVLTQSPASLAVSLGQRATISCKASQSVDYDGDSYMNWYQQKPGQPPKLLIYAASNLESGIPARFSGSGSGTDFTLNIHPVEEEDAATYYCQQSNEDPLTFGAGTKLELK 66.1

For 2B11 (antibody, human IgG4, V domains shown, chimeric human IgG4 (S-to-P, L-to-E at 248), human CL; also called Parental 2B11) VH: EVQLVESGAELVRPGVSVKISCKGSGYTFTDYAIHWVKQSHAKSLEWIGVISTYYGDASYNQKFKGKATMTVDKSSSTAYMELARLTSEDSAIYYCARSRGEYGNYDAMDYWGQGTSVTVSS VL: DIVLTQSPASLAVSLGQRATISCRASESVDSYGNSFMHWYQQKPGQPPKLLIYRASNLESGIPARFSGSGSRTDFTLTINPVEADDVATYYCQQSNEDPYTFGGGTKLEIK then? 78.6

Then 3A07 (antibody, human IgG4, V domains shown, chimeric human IgG4 (S-to-P, L-to-E at 248), human CL; also called Parental 3A07) VH: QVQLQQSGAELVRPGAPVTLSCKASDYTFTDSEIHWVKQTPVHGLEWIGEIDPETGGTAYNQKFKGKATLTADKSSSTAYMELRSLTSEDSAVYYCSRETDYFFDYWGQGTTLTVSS VL: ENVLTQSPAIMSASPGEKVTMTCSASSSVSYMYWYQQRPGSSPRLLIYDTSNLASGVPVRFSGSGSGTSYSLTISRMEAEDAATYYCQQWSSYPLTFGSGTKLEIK ? 89.6

Query 3D12 (antibody, human IgG4, V domains shown, chimeric: mouse variable domains on human IgG4 HC (S-to-P and L-to-E at 248) and human CL; also called Parental 3D12; 3D12 chimeric) VH: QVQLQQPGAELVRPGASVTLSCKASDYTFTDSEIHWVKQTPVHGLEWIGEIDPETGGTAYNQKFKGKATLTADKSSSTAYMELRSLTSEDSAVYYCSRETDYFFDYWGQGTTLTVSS VL: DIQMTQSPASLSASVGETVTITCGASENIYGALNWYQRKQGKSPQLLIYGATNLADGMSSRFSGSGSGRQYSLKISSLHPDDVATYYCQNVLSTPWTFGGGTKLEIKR next 68.6
